protocol.details: Pharmacokinetic experiments in rats (IV, oral suspension, oral solution)
Assay type: in vivo
experimental.context: male, rat, plasma, po, 20 mg/kg, Group 5, PO-Solution 20 mg/kg, Mean N=3
measurement.type: AUC(0-inf)

What does the record list as AUC(0-inf) for `O=C(NNc1nc2cc(F)ccc2n2cccc12)c1cnccn1.O=C(O)C(=O)O` ? 2290 ng·h/mL

* * *

protocol.details: Pharmacokinetic experiments in rats (IV, oral suspension, oral solution)
Format: in vivo
experimental.context: male, rat, plasma, oral, 20 mg/kg, Group 2, PO-Suspension 20 mg/kg, 0.5 hr, Mean
measurement.type: concentration at 0.5 h (ng/mL)
// return numeric value only (unit: ng/mL, not printed)

What does the record list as concentration at 0.5 h for O=C(NNc1nc2cc(F)ccc2n2cccc12)c1cnccn1 [NVX-144, reference compound] ? 479

* * *

protocol.details: Pharmacokinetic experiments in rats (IV, oral suspension, oral solution)
Assay type: in vivo
experimental.context: male, rat, plasma, po, 20 mg/kg, Group 5, PO-Solution 20 mg/kg, individual animals, read-out: Tmax
measurement.type: Tmax

What does the record list as Tmax for `O=C(NNc1nc2cc(F)ccc2n2cccc12)c1cnccn1.O=C(O)C(=O)O` ? 30 to 60 min

* * *

protocol.details: Pharmacokinetic experiments in rats (IV, oral suspension, oral solution)
Format: in vivo
experimental.context: male, rat, plasma, po, 20 mg/kg, Group 2, PO-Suspension 20 mg/kg, Mean N=3, versus mean IV AUCINF, adjusted for dose, read-out: Bioavailability
measurement.type: bioavailability
Phrase the answer as number then unit, nothing more needed.

What does the record list as bioavailability for O=C(NNc1nc2cc(F)ccc2n2cccc12)c1cnccn1 [NVX-144, reference compound] ? 34.7%

* * *

protocol.details: Pharmacokinetic experiments in rats (IV, oral suspension, oral solution)
Type: in vivo
experimental.context: male, rat, plasma, iv, 5 mg/kg, IV 5 mg/kg, Mean of 3
measurement.type: clearance (mL/min/kg)
// return numeric value only (unit: mL/min/kg, not printed)

What does the record list as clearance for O=C(NNc1nc2cc(F)ccc2n2cccc12)c1cnccn1.O=C(O)C(=O)O [NVX-412] ? 63.4

* * *

protocol.details: Pharmacokinetic experiments in rats (IV, oral suspension, oral solution)
Type: in vivo
experimental.context: male, rat, plasma, oral, 20 mg/kg, Group 4, PO-Solution 20 mg/kg, 1 hr, Mean
measurement.type: concentration at 1 h (ng/mL)
// return numeric value only (unit: ng/mL, not printed)

What does the record list as concentration at 1 h for O=C(NNc1nc2cc(F)ccc2n2cccc12)c1cnccn1 [NVX-144, reference compound] ? 643

* * *

protocol.details: Pharmacokinetic experiments in rats (IV, oral suspension, oral solution)
Type: in vivo
experimental.context: male, rat, plasma, po, 20 mg/kg, Group 3, PO-Suspension 20 mg/kg, Mean N=2, versus mean IV AUCINF, adjusted for dose, read-out: Bioavailability
measurement.type: bioavailability (%)
// return numeric value only (unit: %, not printed)

What does the record list as bioavailability for `O=C(NNc1nc2cc(F)ccc2n2cccc12)c1cnccn1.O=C(O)C(=O)O` ? 43.9

* * *

protocol.details: Pharmacokinetic experiments in rats (IV, oral suspension, oral solution)
Format: in vivo
experimental.context: male, rat, plasma, po, 20 mg/kg, Group 3, PO-Suspension 20 mg/kg, individual animals
measurement.type: AUC(0-inf) (ng·h/mL)
// return numeric value only (unit: ng·h/mL, not printed)

What does the record list as AUC(0-inf) for O=C(NNc1nc2cc(F)ccc2n2cccc12)c1cnccn1.O=C(O)C(=O)O [NVX-412] ? 2410
